# condition.label: in ethyl acetate, 298.15 K
readout.name: solubility (mole fraction)

Memo: N=C(Nc1ccccc1)Nc1ccccc1 , reported solubility (mole fraction): 0.0566

---

# condition.label: in toluene, 288.15 K
readout.name: solubility (mole fraction)
Number only, please.

Memo: N=C(Nc1ccccc1)Nc1ccccc1 , reported solubility (mole fraction): 0.00282

---

# condition.label: in isobutanol, 290.65 K
readout.name: solubility (mole fraction)
Number only, please.

Memo: N=C(Nc1ccccc1)Nc1ccccc1 , reported solubility (mole fraction): 0.0224

---

# condition.label: in acetonitrile, 290.65 K
readout.name: solubility (mole fraction)
Number only, please.

Memo: N=C(Nc1ccccc1)Nc1ccccc1 , reported solubility (mole fraction): 0.0161

---

# condition.label: in n-butanol, 298.15 K
readout.name: solubility (mole fraction)

Memo: N=C(Nc1ccccc1)Nc1ccccc1 , reported solubility (mole fraction): 0.0377

---

# condition.label: in n-butanol, 293.15 K
readout.name: solubility (mole fraction)
Number only, please.

Memo: N=C(Nc1ccccc1)Nc1ccccc1 , reported solubility (mole fraction): 0.0329

---

# condition.label: in acetonitrile, 300.65 K
readout.name: solubility (mole fraction)
Number only, please.

Memo: N=C(Nc1ccccc1)Nc1ccccc1 , reported solubility (mole fraction): 0.0234

---

# condition.label: in ethanol, 288.15 K
readout.name: solubility (mole fraction)
Number only, please.

Memo: N=C(Nc1ccccc1)Nc1ccccc1 , reported solubility (mole fraction): 0.0235

---

# condition.label: in ethanol, 313.15 K
readout.name: solubility (mole fraction)
Number only, please.

Memo: N=C(Nc1ccccc1)Nc1ccccc1 , reported solubility (mole fraction): 0.0483

---

# condition.label: in ethanol, 298.15 K
readout.name: solubility (mole fraction)
Number only, please.

Memo: N=C(Nc1ccccc1)Nc1ccccc1 , reported solubility (mole fraction): 0.0315

---

# condition.label: in ethanol, 273.15 K
readout.name: solubility (mole fraction)
Number only, please.

Memo: N=C(Nc1ccccc1)Nc1ccccc1 , reported solubility (mole fraction): 0.0144

---

# condition.label: in n-butanol, 295.65 K
readout.name: solubility (mole fraction)
Number only, please.

Memo: N=C(Nc1ccccc1)Nc1ccccc1 , reported solubility (mole fraction): 0.0352

---

# condition.label: in ethanol, 310.65 K
readout.name: solubility (mole fraction)
Number only, please.

Memo: N=C(Nc1ccccc1)Nc1ccccc1 , reported solubility (mole fraction): 0.0448

---

# condition.label: in acetonitrile, 283.15 K
readout.name: solubility (mole fraction)

Memo: N=C(Nc1ccccc1)Nc1ccccc1 , reported solubility (mole fraction): 0.0122

---

# condition.label: in ethyl acetate, 305.65 K
readout.name: solubility (mole fraction)
Number only, please.

Memo: N=C(Nc1ccccc1)Nc1ccccc1 , reported solubility (mole fraction): 0.0678

---

# condition.label: in n-propanol, 293.15 K
readout.name: solubility (mole fraction)
Number only, please.

Memo: N=C(Nc1ccccc1)Nc1ccccc1 , reported solubility (mole fraction): 0.0301

---

# condition.label: in acetonitrile, 308.15 K
readout.name: solubility (mole fraction)
Number only, please.

Memo: N=C(Nc1ccccc1)Nc1ccccc1 , reported solubility (mole fraction): 0.0303

---

# condition.label: in ethyl acetate, 275.65 K
readout.name: solubility (mole fraction)
Number only, please.

Memo: N=C(Nc1ccccc1)Nc1ccccc1 , reported solubility (mole fraction): 0.03

---

# condition.label: in ethyl acetate, 295.65 K
readout.name: solubility (mole fraction)
Number only, please.

Memo: N=C(Nc1ccccc1)Nc1ccccc1 , reported solubility (mole fraction): 0.053

---

# condition.label: in acetone, 288.15 K
readout.name: solubility (mole fraction)
Number only, please.

Memo: N=C(Nc1ccccc1)Nc1ccccc1 , reported solubility (mole fraction): 0.07

---

# condition.label: in ethyl acetate, 293.15 K
readout.name: solubility (mole fraction)
Number only, please.

Memo: N=C(Nc1ccccc1)Nc1ccccc1 , reported solubility (mole fraction): 0.0496

---

# condition.label: in n-propanol, 310.65 K
readout.name: solubility (mole fraction)
Number only, please.

Memo: N=C(Nc1ccccc1)Nc1ccccc1 , reported solubility (mole fraction): 0.0499

---

# condition.label: in isobutanol, 298.15 K
readout.name: solubility (mole fraction)
Number only, please.

Memo: N=C(Nc1ccccc1)Nc1ccccc1 , reported solubility (mole fraction): 0.0286

---

# condition.label: in isobutanol, 280.65 K
readout.name: solubility (mole fraction)
Number only, please.

Memo: N=C(Nc1ccccc1)Nc1ccccc1 , reported solubility (mole fraction): 0.016

---

# condition.label: in ethanol, 293.15 K
readout.name: solubility (mole fraction)
Number only, please.

Memo: N=C(Nc1ccccc1)Nc1ccccc1 , reported solubility (mole fraction): 0.0273

---

# condition.label: in isobutanol, 310.65 K
readout.name: solubility (mole fraction)
Number only, please.

Memo: N=C(Nc1ccccc1)Nc1ccccc1 , reported solubility (mole fraction): 0.0412

---

# condition.label: in n-propanol, 305.65 K
readout.name: solubility (mole fraction)
Number only, please.

Memo: N=C(Nc1ccccc1)Nc1ccccc1 , reported solubility (mole fraction): 0.0435

---

# condition.label: in n-propanol, 290.65 K
readout.name: solubility (mole fraction)
Number only, please.

Memo: N=C(Nc1ccccc1)Nc1ccccc1 , reported solubility (mole fraction): 0.0278

---

# condition.label: in acetonitrile, 278.15 K
readout.name: solubility (mole fraction)

Memo: N=C(Nc1ccccc1)Nc1ccccc1 , reported solubility (mole fraction): 0.0101

---

# condition.label: in acetone, 298.15 K
readout.name: solubility (mole fraction)
Number only, please.

Memo: N=C(Nc1ccccc1)Nc1ccccc1 , reported solubility (mole fraction): 0.0928

---

# condition.label: in ethyl acetate, 283.15 K
readout.name: solubility (mole fraction)
Number only, please.

Memo: N=C(Nc1ccccc1)Nc1ccccc1 , reported solubility (mole fraction): 0.0372

---

# condition.label: in n-propanol, 313.15 K
readout.name: solubility (mole fraction)
Number only, please.

Memo: N=C(Nc1ccccc1)Nc1ccccc1 , reported solubility (mole fraction): 0.0537

---

# condition.label: in toluene, 275.65 K
readout.name: solubility (mole fraction)
Number only, please.

Memo: N=C(Nc1ccccc1)Nc1ccccc1 , reported solubility (mole fraction): 0.00154

---

# condition.label: in n-butanol, 310.65 K
readout.name: solubility (mole fraction)
Number only, please.

Memo: N=C(Nc1ccccc1)Nc1ccccc1 , reported solubility (mole fraction): 0.0527

---

# condition.label: in isobutanol, 278.15 K
readout.name: solubility (mole fraction)
Number only, please.

Memo: N=C(Nc1ccccc1)Nc1ccccc1 , reported solubility (mole fraction): 0.0147

---

# condition.label: in isobutanol, 308.15 K
readout.name: solubility (mole fraction)
Number only, please.

Memo: N=C(Nc1ccccc1)Nc1ccccc1 , reported solubility (mole fraction): 0.0384

---

# condition.label: in acetone, 280.65 K
readout.name: solubility (mole fraction)

Memo: N=C(Nc1ccccc1)Nc1ccccc1 , reported solubility (mole fraction): 0.0554

---

# condition.label: in toluene, 300.65 K
readout.name: solubility (mole fraction)

Memo: N=C(Nc1ccccc1)Nc1ccccc1 , reported solubility (mole fraction): 0.00476

---

# condition.label: in toluene, 295.65 K
readout.name: solubility (mole fraction)
Number only, please.

Memo: N=C(Nc1ccccc1)Nc1ccccc1 , reported solubility (mole fraction): 0.00389

---

# condition.label: in ethyl acetate, 300.65 K
readout.name: solubility (mole fraction)
Number only, please.

Memo: N=C(Nc1ccccc1)Nc1ccccc1 , reported solubility (mole fraction): 0.0603

---

# condition.label: in n-propanol, 303.15 K
readout.name: solubility (mole fraction)
Number only, please.

Memo: N=C(Nc1ccccc1)Nc1ccccc1 , reported solubility (mole fraction): 0.0406

---

# condition.label: in acetonitrile, 298.15 K
readout.name: solubility (mole fraction)
Number only, please.

Memo: N=C(Nc1ccccc1)Nc1ccccc1 , reported solubility (mole fraction): 0.0214

---

# condition.label: in n-propanol, 308.15 K
readout.name: solubility (mole fraction)
Number only, please.

Memo: N=C(Nc1ccccc1)Nc1ccccc1 , reported solubility (mole fraction): 0.0465

---

# condition.label: in toluene, 280.65 K
readout.name: solubility (mole fraction)
Number only, please.

Memo: N=C(Nc1ccccc1)Nc1ccccc1 , reported solubility (mole fraction): 0.00195

---

# condition.label: in acetonitrile, 280.65 K
readout.name: solubility (mole fraction)
Number only, please.

Memo: N=C(Nc1ccccc1)Nc1ccccc1 , reported solubility (mole fraction): 0.0111

---

# condition.label: in ethyl acetate, 278.15 K
readout.name: solubility (mole fraction)
Number only, please.

Memo: N=C(Nc1ccccc1)Nc1ccccc1 , reported solubility (mole fraction): 0.0325

---

# condition.label: in toluene, 313.15 K
readout.name: solubility (mole fraction)

Memo: N=C(Nc1ccccc1)Nc1ccccc1 , reported solubility (mole fraction): 0.00771

---

# condition.label: in toluene, 305.65 K
readout.name: solubility (mole fraction)
Number only, please.

Memo: N=C(Nc1ccccc1)Nc1ccccc1 , reported solubility (mole fraction): 0.00584

---

# condition.label: in toluene, 283.15 K
readout.name: solubility (mole fraction)
Number only, please.

Memo: N=C(Nc1ccccc1)Nc1ccccc1 , reported solubility (mole fraction): 0.00219
